I'd be grateful if you could share measured IC50 for these entries.
- Study Target: human P2X7 receptor (Homo sapiens (Human), UniProt Q99572, R270H)
- Sequence (Q99572 whole entry R270H): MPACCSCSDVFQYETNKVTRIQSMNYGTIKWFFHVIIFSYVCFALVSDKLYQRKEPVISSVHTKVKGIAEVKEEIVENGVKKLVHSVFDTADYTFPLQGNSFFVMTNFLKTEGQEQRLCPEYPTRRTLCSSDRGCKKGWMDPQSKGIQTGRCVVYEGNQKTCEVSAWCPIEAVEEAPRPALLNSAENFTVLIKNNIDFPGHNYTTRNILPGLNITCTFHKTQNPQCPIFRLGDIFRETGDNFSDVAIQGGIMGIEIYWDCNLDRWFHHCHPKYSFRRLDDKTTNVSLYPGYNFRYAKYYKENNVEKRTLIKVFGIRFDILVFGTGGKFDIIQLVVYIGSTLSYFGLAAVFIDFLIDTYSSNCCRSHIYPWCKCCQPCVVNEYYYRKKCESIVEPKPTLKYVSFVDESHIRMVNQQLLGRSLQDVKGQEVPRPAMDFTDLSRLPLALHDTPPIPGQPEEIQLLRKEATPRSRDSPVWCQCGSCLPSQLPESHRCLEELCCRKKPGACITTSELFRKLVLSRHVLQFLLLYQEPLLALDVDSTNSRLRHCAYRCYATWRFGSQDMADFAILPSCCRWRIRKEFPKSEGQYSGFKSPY
- Protocol Summary: Evaluation of a human P2X7 receptor inhibitory activity (Yo-Pro uptake, BzATP stimulation, FLIPR TETRA)
- Assay type: cell-based
- Assay Conditions: 1321N1 cells stably expressing human P2X7 receptor, Yo-Pro fluorescence, class symbols

Completed entries (count: 10):
{"columns": ["Molecule", "Study Target", "IC50"],
 "data": [
  ["COc1cc(C)c(Nc2nc(=O)c(F)c3n2C(c2ccc(F)cc2)CN3C)cc1OC (stereo not shown)", "human P2X7 receptor (Homo sapiens (Human), UniProt Q99572, R270H)", "10 to 100 nM"],
  ["COc1cc(Nc2nc(=O)c(OC)c3n2C(c2ccccc2)CC3)c(C)cc1F (stereo not shown)", "human P2X7 receptor (Homo sapiens (Human), UniProt Q99572, R270H)", "10 to 100 nM"],
  ["COc1cc(C)c(NC2=NC(=O)N(C)C3=NCC(c4cc(F)cc(F)c4)N23)cc1OC (stereo not shown)", "human P2X7 receptor (Homo sapiens (Human), UniProt Q99572, R270H)", "10 to 100 nM"],
  ["CCN1C(=O)N=C(Nc2ccc(C)nc2C)N2C1=NCC2c1ccc(F)cc1 (stereo not shown)", "human P2X7 receptor (Homo sapiens (Human), UniProt Q99572, R270H)", "500 to 1000 nM"],
  ["COCC(F)(F)c1ccc(C)c(NC2=NC(=O)N(C)C3=NCC(c4cc(F)c(F)c(F)c4)N23)c1 (stereo not shown)", "human P2X7 receptor (Homo sapiens (Human), UniProt Q99572, R270H)", "10 to 100 nM"],
  ["COc1cc(Nc2nc(=O)cc3n2C(c2ccc(F)cc2)CC3)c(C)cc1Cl (stereo not shown)", "human P2X7 receptor (Homo sapiens (Human), UniProt Q99572, R270H)", "10 to 100 nM"],
  ["Cc1cc(Nc2nc(=O)cc3n2C(c2ccccc2)CC3)c(C)cc1Cl (stereo not shown)", "human P2X7 receptor (Homo sapiens (Human), UniProt Q99572, R270H)", "< 10 nM"],
  ["COc1nc(C)c(Nc2nc(=O)cc3n2C(c2cc(F)cc(F)c2)CC3)cc1F (stereo not shown)", "human P2X7 receptor (Homo sapiens (Human), UniProt Q99572, R270H)", "10 to 100 nM"],
  ["COc1c2n(c(Nc3cc4sc(C)nc4cc3C)nc1=O)C(c1ccc(F)cc1)CC2 (stereo not shown)", "human P2X7 receptor (Homo sapiens (Human), UniProt Q99572, R270H)", "10 to 100 nM"],
  ["COc1nc(C)c(NC2=NC(=O)N(C)C3=NCC(c4cc(F)c(F)c(F)c4)N23)cc1CO (stereo not shown)", "human P2X7 receptor (Homo sapiens (Human), UniProt Q99572, R270H)", "10 to 100 nM"]
]}

# return IC50 for each item in the list
1. COc1nc(C)c(Nc2nc(=O)cc3n2C(c2ccc(F)c(Cl)c2)CC3)cc1F (stereo not shown)
2. COc1ccc(/N=c2\[nH]c(=O)c(F)c3n2C(c2ccc(F)cc2F)CC3)c(C)n1 (stereo not shown) [Compound I-0093]
3. Cc1cc(F)c(OCCO)cc1NC1=NC(=O)N(C)C2=NCC(c3cc(F)c(F)c(F)c3)N12 (stereo not shown)
4. CCN1C(=O)N=C(Nc2cc(OC)c(OC)cc2C)N2C1=NCC2c1ccc(F)cc1 (stereo not shown)
5. COc1ccc(/N=c2\[nH]c(=O)cc3n2C(c2ccc(F)cc2)CC3)c(C)n1 (stereo not shown)
6. COc1nc(C)c(Nc2nc(=O)cc3n2C(c2cc(F)c(F)c(F)c2)CC3)cc1F (stereo not shown)

**A:**
10 to 100 nM
100 to 500 nM
10 to 100 nM
10 to 100 nM
10 to 100 nM
10 to 100 nM
